This collection of values is drawn from PubChem BioAssay AID1159580.

# Measurement notes: chemical genetic growth profiling, strain panel (AID 1159580);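 also: tested at 20 µM; growth read once vehicle control cultures reached saturation at 30 °C; 1 = growth at the plate median or of vehicle wells; lower values mean less growth of the strain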
# Run conditions: S. cerevisiae deletion strains, growth OD, locus YAL030W, strain snc1, hits give low values
About 2,000 (36%) of roughly 5,500 compounds were called active. Inconclusive results (about 18%) are left out. Some of the results follow.

# Compound, normalized growth
records = [
    ("NS(=O)(=O)c1cc2c(cc1Cl)NC(C1CC3C=CC1C3)NS2(=O)=O (stereo not drawn)", 0.99),
    ("CC1CCC2(OC1)OC1CC3C4CCC5C[C@@H](O)CCC5(C)C4=CCC3(C)C1[C@@H]2C (stereo partly drawn)", 1.02),
    ("C[C@]12C=CC(=O)C=C1CCC1C3C[C@@H](O)[C@](O)(C(=O)CO)[C@@]3(C)C[C@H](O)[C@@]12F (stereo partly drawn)", 0.996),
    ("CC(CCC(=O)O)[C@H]1CCC2C3CC[C@@H]4C[C@H](O)CC[C@]4(C)C3CC[C@@]21C (stereo partly drawn)", 0.989),
    ("CC(CCC(=O)O)[C@H]1CCC2C3C[C@H](O)[C@@H]4C[C@H](O)CC[C@]4(C)C3CC[C@@]21C (stereo partly drawn)", 0.984),
    ("CC(CN(C)C)CN1c2ccccc2Sc2ccccc21 (stereo not drawn)", 1.02),
    ("c1ccc2c(c1)CN1CCCC1=N2", 1),
    ("CC(CN(C)C)CN1c2ccccc2CCc2ccccc21 (stereo not drawn)", 0.977),
]
